Biological target: Calpain I (Homo sapiens)
Construct: made in house
Sequence (P07384 whole entry): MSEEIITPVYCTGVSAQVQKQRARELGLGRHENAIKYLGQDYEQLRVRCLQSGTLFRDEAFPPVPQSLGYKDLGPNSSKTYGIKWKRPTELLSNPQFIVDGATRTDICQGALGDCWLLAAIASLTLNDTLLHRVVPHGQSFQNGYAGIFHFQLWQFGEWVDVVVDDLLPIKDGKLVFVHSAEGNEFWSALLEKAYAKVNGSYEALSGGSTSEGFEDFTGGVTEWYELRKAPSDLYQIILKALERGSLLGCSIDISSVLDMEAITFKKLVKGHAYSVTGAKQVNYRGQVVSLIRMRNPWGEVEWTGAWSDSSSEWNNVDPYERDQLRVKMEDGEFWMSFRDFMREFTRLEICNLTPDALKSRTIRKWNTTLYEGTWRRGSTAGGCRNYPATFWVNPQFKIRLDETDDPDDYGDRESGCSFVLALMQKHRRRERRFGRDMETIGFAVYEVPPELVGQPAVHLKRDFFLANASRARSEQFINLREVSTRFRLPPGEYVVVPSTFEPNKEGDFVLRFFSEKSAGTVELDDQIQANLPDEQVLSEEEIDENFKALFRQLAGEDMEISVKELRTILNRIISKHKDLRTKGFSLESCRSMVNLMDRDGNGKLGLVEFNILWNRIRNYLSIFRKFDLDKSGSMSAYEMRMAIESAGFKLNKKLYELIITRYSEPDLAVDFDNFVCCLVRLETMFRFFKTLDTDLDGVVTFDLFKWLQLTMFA
Sequence (P04632 whole entry partner): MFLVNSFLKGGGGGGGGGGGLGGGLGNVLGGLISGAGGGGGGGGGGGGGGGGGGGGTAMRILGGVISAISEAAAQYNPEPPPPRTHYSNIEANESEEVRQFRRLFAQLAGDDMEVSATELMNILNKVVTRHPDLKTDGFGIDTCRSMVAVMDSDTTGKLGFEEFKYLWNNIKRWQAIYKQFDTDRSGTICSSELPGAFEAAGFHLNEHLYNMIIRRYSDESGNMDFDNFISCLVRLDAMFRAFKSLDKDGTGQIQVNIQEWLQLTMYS
Assay: Inhibition and rate of inactivation of calpain I activity (Succ-Leu-Tyr-MNA substrate hydrolysis)
Format: biochemical
Conditions: apparent second order rate constant of inactivation, pseudo-first order conditions; compounds tested at 0.1 µM; mean of three or more single cuvette analyses
measurement_type: kobs/I (M⁻¹ s⁻¹)

INSERT INTO measurements (molecule, assay_target, measurement_type, unit_info, observed_result) VALUES
  ('CC(C)C[C@H](NS(=O)(=O)N1CCOCC1)C(=O)N[C@@H](Cc1ccccc1)C(=O)COP(=O)(OCc1ccccc1)OCc1ccccc1', 'Calpain I (Homo sapiens)', 'kobs/I', 'M⁻¹ s⁻¹', 182000),
  ('CC(C)CC(NC(=O)C12OC3COC(C)(C)OC3C1OC(C)(C)O2)C(=O)NC(Cc1ccccc1)C(=O)COP(=O)(OCc1ccccc1)OCc1ccccc1 (stereo not shown)', 'Calpain I (Homo sapiens)', 'kobs/I', 'M⁻¹ s⁻¹', 113000),
  ('CC(C)C[C@H](NC(=O)OC(C)(C)C)C(=O)N[C@@H](Cc1ccccc1)C(=O)COP(=O)(OCc1ccccc1)OCc1ccccc1', 'Calpain I (Homo sapiens)', 'kobs/I', 'M⁻¹ s⁻¹', 242000),
  ('CC(C)C[C@H](NC(=O)C12OC(CO)C(O)C1OC(C)(C)O2)C(=O)N[C@@H](Cc1ccccc1)C(=O)COP(=O)(OCc1ccccc1)OCc1ccccc1 (stereo partly shown)', 'Calpain I (Homo sapiens)', 'kobs/I', 'M⁻¹ s⁻¹', 116000);
